test system: SK-MEL-5 melanoma; assay: NCI-60 one-dose screen, 48 h (100 = growth as untreated, 0 = no growth, -100 = all killed); conditions: 10 µM unless noted
This is part of a sample that, as a whole, favours compounds with a hit. Of some 83,000 tested, about 20% had one in any assay.
Assay Endpoint: growth (%)
Return type: number; implicit unit %.

{"columns": ["Compound", "Measurement"],
 "data": [
  ["CSC1=C(N)C(=O)c2[nH]cc(CO)c2C1=N", -98.8],
  ["C=CC[n+]1c(/C=C2\\Sc3ccccc3N2C)sc(-c2ccccc2)c1-c1ccccc1", -97.8],
  ["CC(=O)OC(C(=O)c1ccccc1)c1ccccc1 (stereo not given)", 102],
  ["COc1cc2ncnc(Nc3ccc(O)cc3)c2cc1OC", 98.2]
]}

Endpoint output: growth of "O=C(NCCO)Nc1ccc(-c2nc(N3CCOCC3)c3cccn3n2)cc1" . Value?
-27.6

Same again, this time with "CN1C/C=C\CCOc2cccc(c2)-c2ccnc(n2)Nc2cccc(c2)C1"
-95.1

Same again, this time with "Cc1cnc(NC(=O)Nc2cc(Br)c(C)cc2OC[C@@H]2CNCCO2)cn1"
-92.2

Same again, this time with "COc1ccc2c(CCC(c3ccccc3)c3ccccc3)c3[n+](cc2c1OC)CCc1cc2c(cc1-3)OCO2"
-99.6

Same again, this time with "CNC(=O)c1cc(Oc2cccc3nc(Nc4ccc(Cl)c(F)c4)ccc23)ccn1"
44.8

Same again, this time with "O=C(Cc1ccccc1)Nc1nnc(NC2CCN(c3nnc(NC(=O)Cc4ccccc4)s3)CC2)s1"
98.7

====

system: A498 renal; test: NCI-60 one-dose screen, 48 h; details: 10 µM unless noted
The panel holds about 83,000 compounds, 20% with a hit somewhere; the sample as a whole holds those more often. Activity calls are given as the source filed them. Rule for the calls: active = growth percent below 10; inactive = the rest.
Give your call using only these classes: true (active), false (inactive)

Previously resolved entries follow.
{"columns": ["Molecule", "Group"],
 "data": [
  ["CCc1nc2cc(/C=C/C(=O)NO)ccc2c(=O)n1CCc1ccc(OC)cc1", "true"],
  ["CCCCCc1ccc(C)cc1OC(=O)CCl", "false"],
  ["O=C1C=CC2(NN=C(c3ccccc3)N2c2cccc(Cl)c2)c2cccc(O)c21 (stereo not given)", "false"],
  ["COc1cc2c(cc1OCCCCN1CCN(CC(=O)Nc3ccc(Cl)cc3C(=O)c3ccccc3Cl)CC1)N=CC1CCCN1C2=O (stereo not given)", "true"],
  ["N#Cc1cc2[nH]c3ccc(OC(F)(F)F)cc3c2oc1=O", "false"]
]}

Could you please tell me the result logged for "Cc1ccc(NC(=O)Nc2ccc(Nc3ncnc4sc5c(c34)CCOC5)cc2)cc1Cl" in this assay?
false

Same again, this time with "CS(=O)(=O)N1CCc2c(-c3cnc(N)nc3)nc(N3CCOCC3)nc21"
true

Same again, this time with "C#Cc1cccc(Nc2ncnc3cc4c(cc23)OCCOCCOCCO4)c1"
false

Same again, this time with "Cc1cc(NCC(=O)Nc2ccc(-c3nc4ccccc4s3)cc2)no1"
false

Same again, this time with "CSC1=C(N)C(=O)c2[nH]cc(CO)c2C1=N"
true

====

system: HCT-15 colon; assay: NCI-60 one-dose screen, 48 h (100 = growth as untreated, 0 = no growth, -100 = all killed); settings: 10 µM unless noted
This is part of a sample that, as a whole, favours compounds with a hit. Of some 83,000 tested, about 20% had one in any assay.
Assay Endpoint: growth (%)
Return type: number; implicit unit %.

{"columns": ["Compound", "Assay Endpoint", "Measurement"],
 "data": [
  ["C=C1[C@@H](O)C[C@H]2C(C)(C)C[C@H](Cl)C[C@]2(C)[C@H]1C[C@H](O)[C@H]1CC(=O)NC1=O", "growth", -13.7]
]}

Return growth measured with HCT-15 colon given this compound: "CCc1nc2cc(/C=C/C(=O)NO)c(F)cc2c(=O)n1CCc1ccccc1"
25.9

Same again, this time with "Cc1c(Cn2c(C)nc3c(C(=O)O)cc(N4CCOCC4)cc32)cccc1C(F)(F)F"
44.5

====

tested on: CCRF-CEM leukemia; assay: NCI-60 one-dose screen, 48 h; details: 10 µM unless noted
About 83,000 compounds went through this panel and 20% of them were active in at least one assay; those are over-represented in the sample as a whole. Activity calls are given as the source filed them. How the source made its calls: active means growth percent below 10; inactive means the rest.
Give your call using only these classes: active, inactive

Previously resolved entries follow.
{"columns": ["Compound", "Group"],
 "data": [
  ["Cc1ccc(-c2cc3c(SCC(=O)Nc4cc(C(F)(F)F)ccc4Cl)nccn3n2)cc1", "inactive"],
  ["CNC(=O)c1cc(COc2nnc(Nc3ccc(Cl)cc3)c3ccoc23)ccn1", "inactive"],
  ["O=[N+]([O-])c1cc(Br)cc2c1[nH]c1ccc(Br)cc12", "inactive"],
  ["Cc1cc(-c2cc(O)ccc2Cl)cc2nnc(Nc3ccc(OCCN4CCCC4)cc3)nc12", "active"],
  ["Cc1ccccc1N1C(c2ccccc2)=NNC12C=CC(=O)C=C2Cl (stereo not drawn)", "inactive"]
]}

Could you please tell me the result logged for "COc1cc(CCc2cc(NC(=O)c3ccc(N4C[C@@H](C)N[C@@H](C)C4)cc3)n[nH]2)cc(OC)c1" in this assay?
inactive

Same again, this time with "CCN(CC)C(=O)C[N+](C)(C)CCOC(c1ccccc1)c1ccccc1"
inactive

Same again, this time with "COCCOc1cnc2ccn([C@H](C)c3nnc4c(F)cc(-c5cnn(C)c5)cn34)c(=O)c2c1"
inactive

====

tested on: SNB-19 CNS; test: NCI-60 one-dose screen, 48 h (100 = growth as untreated, 0 = no growth, -100 = all killed); details: 10 µM unless noted
This is part of a sample that, as a whole, favours compounds with a hit. Of some 83,000 tested, about 20% had one in any assay.
Assay Endpoint: growth (%)
Return type: number; implicit unit %.

{"columns": ["Compound", "Experimental Target", "growth [%]"],
 "data": [
  ["COc1ccc(-c2nocc2-c2cc(OC)c(OC)c(OC)c2)cc1", "SNB-19 CNS", 34.9],
  ["FC(F)c1nc2ccccc2n1-c1nc(N2CCOCC2)nc(N2CCOCC2)n1", "SNB-19 CNS", 10.5],
  ["O=C(Cn1ccc2ccccc21)Nc1ccc(-c2nc3ccccc3s2)cc1", "SNB-19 CNS", 98.6],
  ["COC(=O)[C@H](C)NC(=O)[C@@H](OC)[C@@H]1Cc2cc3cc(OC4CC(OC5CC(O)C(O)C(C)O5)C(O)C(C)O4)c(C)c(O)c3c(O)c2C(=O)[C@H]1OC1CC(OC2CC(OC3CC(C)(O)C(O)C(C)O3)C(O)C(C)O2)C(O)C(C)O1 (stereo partly drawn)", "SNB-19 CNS", 8.48],
  ["CSc1nc2ncncc2[nH]1", "SNB-19 CNS", 100]
]}

Endpoint output: growth of "O=C(Nc1ccc(-c2ccnc(Nc3ccc(N4CCOCC4)cc3)n2)cc1)[C@@H]1CCCN1" . Value?
83.4

Same again, this time with CC(=O)OC(C(=O)c1ccccc1)c1ccccc1 (stereo not drawn)
103

Same again, this time with "COc1cc2c(Oc3ccc(NC(=O)C4(C(=O)Nc5ccc(F)cc5)CC4)cc3F)ccnc2cc1OCCCN1CCOCC1"
10.6

====

tested on: OVCAR-4 ovarian; test: NCI-60 one-dose screen, 48 h (100 = growth as untreated, 0 = no growth, -100 = all killed); conditions: 10 µM unless noted
Compounds without any hit were thinned out: in the full panel of roughly 83,000, 20% have a hit.
Below, each of the molecules is paired with its reported growth value.
Return type: number; implicit unit %.

{"columns": ["Given Smiles", "Units Symbol", "Measurement"],
 "data": [
  ["CCN1CCN(c2nc(C)cc(N(CCCNc3ccnc4cc(Cl)ccc34)Cc3ccc4c(c3)OCO4)n2)CC1", "%", 2.74]
]}

Return growth measured with OVCAR-4 ovarian given this molecule: "COc1cc2nc(Nc3cccc(Cl)c3)nc(N)c2cc1OC"
72.7

Same again, this time with "COc1cc(-c2cc(-c3ccc(Nc4ccnc5cc(Cl)ccc45)cc3)nc(N3CCOCC3)n2)cc(OC)c1OC"
-48.3

Same again, this time with "CN1CC[C@@H](c2c(O)cc(O)c3c(=O)cc(-c4ccccc4Cl)oc23)[C@@H]1CO"
-2.68

Same again, this time with "Cc1ccc(N=C2CSc3nnc(-c4csc5c4CCCC5)n3N2)cc1"
62.1

Same again, this time with "COc1ccc(Cl)c(Nc2nc3ccccc3nc2NS(=O)(=O)c2cccc(NC(=O)C(C)(C)N)c2)c1"
68

====

test system: TK-10 renal; assay: NCI-60 one-dose screen, 48 h (100 = growth as untreated, 0 = no growth, -100 = all killed); conditions: 10 µM unless noted
About 83,000 compounds went through this panel and 20% of them were active in at least one assay; those are over-represented in the sample as a whole.
Assay Endpoint: growth (%)
Return type: number; implicit unit %.

{"columns": ["Compound", "Units Symbol", "growth"],
 "data": [
  ["CCCNC(=O)c1cn2ncnc(Nc3cc(C(=O)NC4CC4)ccc3C)c2c1C", "%", 104],
  ["CC(C)(C)C(=O)OCOP(=O)(OCOC(=O)C(C)(C)C)C1CCCN(OC(=O)c2ccccc2)C1=O (configuration not stated)", "%", 11.7],
  ["O=C1CC(c2cccc(F)c2)c2c(n[nH]c2-c2ccc(Cl)cc2)N1 (configuration not stated)", "%", 94.1],
  ["CCN(CC)CCOc1ccc(/C(=C(\\C)c2ccc(Cl)cc2)c2ccc(Cl)cc2)cc1", "%", 87.6],
  ["CO[C@H]1C[C@@H]2CC[C@@H](C)[C@@](O)(O2)C(=O)C(=O)N2CCCC[C@H]2C(=O)O[C@H]([C@H](C)C[C@@H]2CC[C@@H](OP(C)(C)=O)[C@H](OC)C2)CC(=O)[C@H](C)/C=C(\\C)[C@@H](O)[C@@H](OC)C(=O)[C@H](C)C[C@H](C)\\C=C/C=C/C=C/1C", "%", 46],
  ["CN1CCN(c2nc(C3=C(c4c[nH]c5ccccc45)C(=O)NC3=O)c3ccccc3n2)CC1", "%", 47.3]
]}

Endpoint output: growth of "CCN(CC)CCN1C(=O)c2cccc3c(-c4ccc5c(c4)ncn5C4CCCCC4)ccc(c23)C1=O" . Value?
32.1

Same again, this time with "C=CC(=O)N1CCC(Oc2cc3c(Nc4ccc(Cl)c(Cl)c4F)ncnc3cc2OC)CC1"
-7.41

Same again, this time with "C=CC[n+]1c(/C=C2\Sc3ccccc3N2C)sc(-c2ccccc2)c1-c1ccccc1"
-6.28

Same again, this time with "O=C(CNc1nc(-c2ccc(Cl)cc2)cs1)Nc1ccc(-c2nc3ccccc3s2)cc1"
66.5

Same again, this time with NC(=O)N1N=C(c2ccc(Cl)cc2)CC1c1cn(-c2ccccc2)nc1-c1ccc(Cl)cc1 (configuration not stated)
43.2
